- System Tested: LRRK2 WT (Homo sapiens, UniProt Q5S007)
- Construct: purchased Life Technologies PR8604B
- Sequence (Q5S007 whole entry): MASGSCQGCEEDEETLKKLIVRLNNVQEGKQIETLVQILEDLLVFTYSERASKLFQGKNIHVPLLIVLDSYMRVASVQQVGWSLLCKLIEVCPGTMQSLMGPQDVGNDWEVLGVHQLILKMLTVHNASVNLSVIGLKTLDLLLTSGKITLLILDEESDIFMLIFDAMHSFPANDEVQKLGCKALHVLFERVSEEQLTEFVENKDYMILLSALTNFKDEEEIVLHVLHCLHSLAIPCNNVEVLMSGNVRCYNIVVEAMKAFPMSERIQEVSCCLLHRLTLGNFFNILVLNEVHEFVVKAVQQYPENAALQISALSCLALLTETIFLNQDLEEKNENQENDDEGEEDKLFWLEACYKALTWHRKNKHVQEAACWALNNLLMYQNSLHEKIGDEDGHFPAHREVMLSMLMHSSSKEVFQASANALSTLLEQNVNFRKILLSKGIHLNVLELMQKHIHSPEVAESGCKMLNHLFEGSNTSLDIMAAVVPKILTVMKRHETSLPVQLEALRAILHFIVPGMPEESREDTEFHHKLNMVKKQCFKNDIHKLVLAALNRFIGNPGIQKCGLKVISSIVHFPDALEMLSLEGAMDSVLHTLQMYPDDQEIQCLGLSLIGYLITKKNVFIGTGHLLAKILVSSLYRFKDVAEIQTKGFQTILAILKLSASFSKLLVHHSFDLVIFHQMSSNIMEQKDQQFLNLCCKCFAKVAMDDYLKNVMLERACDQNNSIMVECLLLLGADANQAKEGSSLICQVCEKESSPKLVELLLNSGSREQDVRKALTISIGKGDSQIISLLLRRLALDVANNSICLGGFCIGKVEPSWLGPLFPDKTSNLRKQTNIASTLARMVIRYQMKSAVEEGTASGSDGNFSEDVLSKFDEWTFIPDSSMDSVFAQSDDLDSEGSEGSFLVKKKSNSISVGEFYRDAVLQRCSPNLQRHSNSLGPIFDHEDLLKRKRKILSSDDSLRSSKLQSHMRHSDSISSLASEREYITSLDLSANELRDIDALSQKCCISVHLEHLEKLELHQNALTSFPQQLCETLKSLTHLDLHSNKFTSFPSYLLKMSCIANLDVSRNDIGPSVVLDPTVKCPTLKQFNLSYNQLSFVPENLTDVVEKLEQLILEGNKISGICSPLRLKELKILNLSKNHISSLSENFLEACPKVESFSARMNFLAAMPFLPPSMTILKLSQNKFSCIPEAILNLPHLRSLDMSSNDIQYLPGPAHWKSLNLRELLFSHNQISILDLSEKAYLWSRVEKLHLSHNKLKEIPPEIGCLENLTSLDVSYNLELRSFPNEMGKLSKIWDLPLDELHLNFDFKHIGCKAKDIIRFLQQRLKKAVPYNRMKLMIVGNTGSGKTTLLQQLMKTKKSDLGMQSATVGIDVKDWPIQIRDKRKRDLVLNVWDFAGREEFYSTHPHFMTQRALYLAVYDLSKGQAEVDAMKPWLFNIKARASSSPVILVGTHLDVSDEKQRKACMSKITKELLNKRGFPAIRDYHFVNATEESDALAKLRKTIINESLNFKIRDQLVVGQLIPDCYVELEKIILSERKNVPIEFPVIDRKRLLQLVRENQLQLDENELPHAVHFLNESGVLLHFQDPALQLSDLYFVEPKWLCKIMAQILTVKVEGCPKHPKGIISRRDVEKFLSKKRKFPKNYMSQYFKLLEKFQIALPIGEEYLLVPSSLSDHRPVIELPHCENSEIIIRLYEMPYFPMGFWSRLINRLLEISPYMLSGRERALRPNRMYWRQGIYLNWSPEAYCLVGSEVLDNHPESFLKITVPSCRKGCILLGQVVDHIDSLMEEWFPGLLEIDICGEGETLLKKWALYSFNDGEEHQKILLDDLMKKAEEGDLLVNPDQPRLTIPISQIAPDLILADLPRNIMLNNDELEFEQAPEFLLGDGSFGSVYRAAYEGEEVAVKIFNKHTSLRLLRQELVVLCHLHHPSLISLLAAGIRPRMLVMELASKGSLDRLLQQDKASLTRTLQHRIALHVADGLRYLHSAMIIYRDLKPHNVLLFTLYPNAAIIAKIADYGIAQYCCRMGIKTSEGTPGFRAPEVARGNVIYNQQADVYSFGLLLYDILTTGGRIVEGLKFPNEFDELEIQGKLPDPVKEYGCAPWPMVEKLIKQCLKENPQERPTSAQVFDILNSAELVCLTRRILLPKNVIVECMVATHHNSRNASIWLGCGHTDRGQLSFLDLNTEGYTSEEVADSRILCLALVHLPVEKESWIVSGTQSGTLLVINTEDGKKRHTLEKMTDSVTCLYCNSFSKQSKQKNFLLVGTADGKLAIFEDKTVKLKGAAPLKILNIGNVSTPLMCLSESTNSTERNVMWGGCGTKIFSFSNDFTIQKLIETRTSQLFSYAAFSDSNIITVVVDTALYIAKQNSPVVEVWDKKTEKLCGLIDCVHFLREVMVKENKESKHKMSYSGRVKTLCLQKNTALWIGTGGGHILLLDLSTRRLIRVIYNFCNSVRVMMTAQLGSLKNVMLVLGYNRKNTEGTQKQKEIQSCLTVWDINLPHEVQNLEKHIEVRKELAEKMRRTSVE
- Test Method Notes: LRRK2 Kinase Activity Assay (LanthaScreen TR-FRET), wild type
- Assay type: biochemical
- Condition Set: recombinant wild type LRRK2, 25 μM ATP, 400 nM LRRKtide, 60 min; class symbols
pIC50: −log10 of the molar value.
Assay Metric: pIC50

Observe how each entry below is paired with its result.
N#Cc1cnc2c(c1)CCC[C@H]2Nc1ccc2[nH]nc(-c3cnco3)c2c1 (single isomer, unassigned) [Example 120, enantiomer 1]; > 7.00
C[C@@H]1C[C@@H](Nc2ccc3[nH]nc(-c4cnco4)c3c2)c2ccc(C#N)cc21 (single isomer, unassigned) [Example 168, enantiomer 1]; 6.00 to 7.00
N#Cc1c(F)cc2c(c1F)CC[C@@H]2Oc1ccc2[nH]nc(-c3cnco3)c2c1 (single isomer, unassigned) [Example 167, enantiomer 2]; > 7.00
N#Cc1cnc2c(c1Cl)CCC[C@@H]2Nc1ccc2[nH]nc(-c3cnco3)c2c1 (single isomer, unassigned) [Example 144, enantiomer 1]; 6.00 to 7.00
N#Cc1ccc2c(c1)CC[C@@H]2Oc1ccc2[nH]nc(-c3cnoc3)c2c1 (single isomer, unassigned) [Example 5, enantiomer 1]; > 7.00

Next, consider the following compound.
Exercise: Recorded pIC50 for C/C=C/c1n[nH]c2ccc(N[C@H]3CCCc4cc(C#N)ccc43)cc12 (single isomer, unassigned) [Example 75] , please?
Key: 6.00 to 7.00

###

- System Tested: LRRK2 WT (Homo sapiens, UniProt Q5S007)
- Construct: purchased Life Technologies PR8604B
- Test Method Notes: LRRK2 Kinase Activity Assay (LanthaScreen TR-FRET), wild type
- Type: biochemical
- Condition Set: recombinant wild type LRRK2, 25 μM ATP, 400 nM LRRKtide, 60 min; class symbols
Can you tell me IC50 for the items I'm about to list?

Cc1nc2c(c(C)c1C#N)CCC[C@@H]2Nc1ccc2[nH]nc(-c3cnco3)c2c1 (single isomer, unassigned) [Example 164, enantiomer 2]; < 100 nM
N#Cc1ccc2c(c1)CC[C@@H]2Nc1ccc2[nH]nc(-c3cnco3)c2c1 (single isomer, unassigned) [Example 9, enantiomer 2]; < 100 nM
Cc1n[nH]c2ccc(O[C@H]3CCc4cc(C#N)ccc43)cc12 (single isomer, unassigned) [Example 1, enantiomer 1]; 100 to 1000 nM
Cc1c(C#N)cnc2c1CC[C@@H]2Nc1ccc2[nH]nc(-c3cnco3)c2c1 (single isomer, unassigned) [Example 108, enantiomer 2]; < 100 nM
N#Cc1cnc2c(c1)CCC[C@@H]2Oc1ccc2[nH]nc(-c3cnn(C(F)F)c3)c2c1 (single isomer, unassigned) [Example 141, enantiomer 1]; < 100 nM

Please give IC50 for each item listed below.
1. N#Cc1ccc2c(c1)CCC2Oc1ccc2[nH]nc(-c3cnco3)c2c1 (single isomer, unassigned) [Example 3, enantiomer 1]
2. N#Cc1ccc2c(c1)CCC[C@H]2Nc1ccc2[nH]nc(-c3cnco3)c2c1 (single isomer, unassigned) [Example 119, enantiomer 2]
3. CC1(C)C[C@H](Nc2ccc3[nH]nc(-c4cnco4)c3c2)c2ccc(C#N)cc21 (single isomer, unassigned) [Example 105, enantiomer 2]
4. N#Cc1ccc2c(c1)OCC[C@@H]2Nc1ccc2[nH]nc(I)c2c1 (single isomer, unassigned) [193, enantiomer 1]

Key:
< 100 nM
< 100 nM
100 to 1000 nM
1000 to 10000 nM
